Recorded pIC50 for the following binders
Target: T1, human ROR1 extracellular domain (ECD) protein (human, UniProt Q01973 30-406)
T1 construct: also called hROR1-ECD; human ROR1-ECD
T1 sequence (Q01973 30-406 limits assumed): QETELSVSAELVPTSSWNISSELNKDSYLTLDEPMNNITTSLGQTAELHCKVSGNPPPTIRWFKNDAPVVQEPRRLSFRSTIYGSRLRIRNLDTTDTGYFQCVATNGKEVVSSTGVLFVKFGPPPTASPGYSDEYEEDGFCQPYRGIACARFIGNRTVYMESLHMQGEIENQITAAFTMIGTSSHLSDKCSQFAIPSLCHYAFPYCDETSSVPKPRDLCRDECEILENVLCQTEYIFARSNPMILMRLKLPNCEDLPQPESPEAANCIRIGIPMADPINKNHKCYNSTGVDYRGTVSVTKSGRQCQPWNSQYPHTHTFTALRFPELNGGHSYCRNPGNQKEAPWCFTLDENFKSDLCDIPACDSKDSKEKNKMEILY
Experiment: competitive phage ELISA: soluble ROR1 against ROR1-coated plate
pIC50: −log10 of the molar value.

| BINDER | pIC50 |
| --- | --- |
| P601-149 (scFv, V domains shown, not shown: large carriers; small tags and cut ends) VH: EAQLVESGGGLVKPGGSLRLSCAASGFTFSDYYMGWVRQAPGKGLKWLSYISDRAHTIYDTDSVKGRFTISRDDAKSSLYLRMNNLRVEDTAVYYCARAVGAGEGFDYWGQGTLVTVSS VL: DIQLTQSPSSLSASVGDRVTITCQASQDVRNYLNWYQQKPGKAPNLLIYDATNLESGVPSRFSGSGSGTDFTFTISSLQPEDFATYYCQQYDNLPLSFGGGTKVEIK | 8.56 |
| P601-50 (scFv, V domains shown) VH: QVQLQQSGAEVKKPGASVKVSCKASGYTFSRYYIHWVRRAPGQGLEWMGLINPGGGSTNYAQKFQGRVTMTRDTSTNTVYLELSSLRSDDTAVYYCARDYGTIDARRFDFWGQGTLVTVSS VL: QSALTQPPSASGTPGQRVTISCPGSSSNIGSNYVYWYQQLPGTAPKLLIYRNNQRPSGVPDRFSGSKSGTSATLGITGLQTGDEADYYCGTWDSSLSAYVFGTGTKVTVL | 7.62 |
| P601-103 (scFv, V domains shown) VH: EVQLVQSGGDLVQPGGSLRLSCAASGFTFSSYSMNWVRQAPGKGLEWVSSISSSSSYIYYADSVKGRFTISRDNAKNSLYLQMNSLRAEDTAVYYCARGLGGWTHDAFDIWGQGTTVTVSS VL: QSVLTQPASVSGSPGQSITISCTGTTSDVGGYNYVSWYQQHPGKAPKLMIYDVSKRPSGVSNRFSGSKSGNTASLTISGLQAEDEADYYCSSYTSSSTDVFGTGTKLTVL | 8.06 |
| P601-14 (scFv, V domains shown) VH: QVQLVQSGAEVKKPGESLKISCKDSGYSFTNYWLGWVRQMPGKGLEWMGIIYPGDSDTRYSPSFRGQVTISADKSISTAYLQWSSLKASDTAMYYCARLNLATHTAFDIWGQGTTVTVSS VL: QSVLTQPASVSGSPGQSITISCTGTSSDVGGYNYVSWYQQHPGKAPKLMIYDVSNRPSGVSNRFSGSKSGNTASLTISGLQAEDEADYYCSSYTSSSTLWVFGGGTKLTVLG | 8.49 |
| P601-40 (scFv, V domains shown) VH: QVQLQQSGAEVKKPGASVKVSCKASGYTSTNYGISWVRQAPGQGLEWMGWISTYNGNTNYAQKLQGRVTMTTDTSTSTAYMELRSLRSDDTAVYYCARDYYSDSSGYWDDAFDIWGQGTMVTVSS VL: DIQLTQSPSSLSASVGDRVTITCRASQNINNYLNWYQQKPGKAPKLLLYAASSLQSGVPSRFSGSGSGTEFTLTISSLHPEDFATYYCQQSYNTPFTFGPGTKVDIKR | 9.70 |
